- TARGET UNDER TEST: DENV-4 VLP (Dengue virus serotype 4, strain …, UniProt P09866 114-774)
- MEASUREMENT PROTOCOL: Luminex, VLP-coupled beads
List of EC50 values.
READOUT: EC50

# BINDER, RESULT
records = [
    ("DENV4-7D5 (antibody, V domains shown, also called Clone 7D5) VH: QSVEESGGRLVTPGTPLTLTCTVSGIDLSSWEMGWVRQAPGKGLEWIGIIFPSGTIYYANWAKGRFAISKASTTVDLKITSPTTEDTATYFCGRHGGSLYLNIWGPGTLVTVSL VL: AQVLTQTPSPVSAAVGGTVTINCQASQSVYVNRNLAWYQQKPGQPPKVLIYEASKLASGVPSRFKGSGSGTQFTLTISGVQCDDAATYYCQGEFGCSSADCIAFGGGTEVVVK", "0.0232 mg/L"),
    ("DENV4-9G8 (antibody, V domains shown, also called Clone 9G8) VH: QSLEESGGGLVKPGASLTLTCTASGFSFSYRYWMSWVRQAPGKRPEWIACIDTGNGDTYYASRAKGRFTIMKTSSTTVTLQMTSLTVADTATYFCARSDVTLTGYGYGNLWGPGTLVTVSS VL: DSVMTQTPASVSEPVGGTVTINCQASHNIYNSLAWYQQKPGQPPKLLIYRASTLESGVPSRVKGSGYGTEYTLTISDLECADAATYYCQQYYGGDDDGFGFGGGTEVVVK", "0.0713 mg/L"),
    ("DENV4-8C7 (antibody, V domains shown, also called Clone 8C7) VH: QSVEESGGRLVTPGTPLTLTCTVSGIDLSSYEMGWVRQAPGKGLEWIGIIFPSGTIYYANWAKGRFTISKTSTTVDLKITSPTTEDTATYFCGRHGGSLYLNIWGPGTLVTVSL VL: AQVLTQTPSPVSAAVGGTVTINCQASQSVYVNRNLAWYQQKPGQPPKVLIYEASKLASGVPSRFKGSGSGTQFTLTISGVQCDDAATYYCQGEFGCSSADCIAFGGGTEVVVK", "0.0176 mg/L"),
]
